Source listed as patent US20220340564A1.

Tested on: Mycobacterium tuberculosis strain EH4.0 expressing green-fluorescent protein (GFP)
Experiment: microbe, parasite or virus in culture
Format: cell-based
Conditions: 168 h, read-out: pIC50 (converted)
assay_metric: IC50 (nM)
Report only the number, with the unit nM understood.

The cases that follow already have their IC50 on record.
CCc1nc2cc(C)c(Cl)cn2c1C(=O)NCc1ccc(N2CCN(S(=O)(=O)C(F)(F)F)C(OC)=N2)cc1; 20.4
CCc1nc2c(Cl)cccn2c1C(=O)NCc1ccc(N2CCN(S(=O)(=O)C(F)(F)F)C=N2)c(F)c1; 8.91
CCc1nc2cc(Cl)c(OC)cn2c1C(=O)NCc1ccc(N2CCN(S(=O)(=O)C(F)(F)F)C(OC)=N2)c(F)c1; 23.4

The recorded IC50 for entry CCc1nc2c(C)cc(Cl)cn2c1C(=O)NCc1ccc(N2CCN(S(=O)(=O)C(F)(F)F)C=N2)c(F)c1 equals 95.5

---

Reported IC50 is given for each of the following compounds.
Test system: Mycobacterium tuberculosis strain EH4.0 expressing green-fluorescent protein (GFP)
Assay: microbe, parasite or virus in culture
Type: cell-based
Details: 168 h, read-out: pIC50 (converted)
Only the number, expressed in nM, is required.

Example cases with answers are listed next.
CCc1nc2ccc(Cl)cn2c1C(=O)NCc1ccc(N2CCN(S(=O)(=O)C(F)(F)F)C(CCO)=N2)cc1; 63.1
CCc1nc2ccc(Cl)cn2c1C(=O)NCc1ccc(N2CCNC(OC)=N2)c(F)c1; 18.6

Lab note: CCc1nc2ccc(C3CC3)cn2c1C(=O)NCc1ccc(N2CCN(S(=O)(=O)C(F)(F)F)C=N2)c(F)c1 gave IC50 of 29.5

---

Test system: Mycobacterium tuberculosis strain EH4.0 expressing green-fluorescent protein (GFP)
Assay: microbe, parasite or virus in culture
Assay type: cell-based
Conditions: 168 h, read-out: pIC50 (converted)
assay_metric: log10 of IC50 (log10 of the value in nM)
All values: base-10 log of IC50 in nM.

Some entries whose results are on file:
CCc1nc2nc3c(cn2c1C(=O)NCc1ccc(N2CCN(S(=O)(=O)C(F)(F)F)C=N2)c(F)c1)CCOC3 [Compound 169]; 1.00
CCc1nc2ccc(Cl)cn2c1C(=O)NCc1ccc(N2CCNC(OC)=N2)cc1 [Compound 96]; 1.56
Cc1ccc2nc(C(F)(F)F)c(C(=O)NCc3ccc(N4CCN(S(=O)(=O)C(F)(F)F)C=N4)c(F)c3)n2c1 [Compound 175]; 0.20
CCc1nc2ncc(Cl)cn2c1C(=O)NCc1ccc(N2CCN(S(=O)(=O)CC(C)C)C=N2)cc1 [Compound 23]; 1.10
CCc1nc2cc3c(cn2c1C(=O)NCc1ccc(N2CCN(S(=O)(=O)C(F)(F)F)C=N2)c(F)c1)CCC3 [Compound 113]; 1.21

Record summary for CCc1nc2cc(Cl)c(Cl)cn2c1C(=O)NCc1ccc(N2CCN(S(=O)(=O)C(F)(F)F)C=N2)c(F)c1 [Compound 118] : reported log10 of IC50 = 1.14

---

Assay: in vivo
Settings: rat, po, 5 mg/kg, t1/2
Experimental: Oral Bioavailability of Compound 161 in Rat Compound 161 was administer PO in rat (5 mg/kg, PEG4000 (sol.), 0.5 w/v Methocel (susp.) and the following results were obtained for the solution and suspension.
assay_metric: half-life (h)
Please reply with the bare figure in h and do not write the unit itself.

The reported half-life of the compound CCc1nc2ncc(C)cn2c1C(=O)NCc1ccc(N2CCN(S(=O)(=O)C(F)(F)F)C=N2)c(F)c1 was 3.55
